Test system: PPARg DBDmut IVT, anti-PPARg (DBD mutation: PPARg1 K132A/R137A, NR concentration 270 nM)
Measurement Notes: PBM binding z-score (relative to random genomic background probes); higher = stronger binding; sequences stand for … in GC…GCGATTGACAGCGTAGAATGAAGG
Quantity Name: PBM binding z-score

>>> df
                       sequence_chain                              study_system        quantity_name  meas_value
0  TCTGCTAGTTCAGTTGGTCAGCTAACGAGCTGCC  PPARg DBDmut IVT, anti-PPARg (DBD mutation: PPARg1 K132A/R137A, NR concentration 270 nM)  PBM binding z-score      -0.636
1  CCCAGCAGGCCAATCTGGGTCACTCAAGGCTTGA  PPARg DBDmut IVT, anti-PPARg (DBD mutation: PPARg1 K132A/R137A, NR concentration 270 nM)  PBM binding z-score       -1.45
2  GCTAGTTGGTCAGTAAAAGGTCACAAACCGGTCG  PPARg DBDmut IVT, anti-PPARg (DBD mutation: PPARg1 K132A/R137A, NR concentration 270 nM)  PBM binding z-score     -0.0957
3  GCTGCTAGGTCAACTCATGGTCAGCTAAAGCTCG  PPARg DBDmut IVT, anti-PPARg (DBD mutation: PPARg1 K132A/R137A, NR concentration 270 nM)  PBM binding z-score       0.163
4  GCTCGGAGGACAAGGTCCGAGCTTTGTCCGTAGA  PPARg DBDmut IVT, anti-PPARg (DBD mutation: PPARg1 K132A/R137A, NR concentration 270 nM)  PBM binding z-score       -1.31
5  TCATATAGGTAAAGGTGAAAATCGAACGATATGA  PPARg DBDmut IVT, anti-PPARg (DBD mutation: PPARg1 K132A/R137A, NR concentration 270 nM)  PBM binding z-score        1.02
